Assignment: determine reported PSMA Blkg % (1.0 μM) for the given compounds.
target: human PSMA (Homo sapiens (Human)); assay: Enzymatic assay for in vitro evaluation of PSMA inhibitors (fluorescent assay of PSMA activity, NAAG substrate, OPA detection of glutamate); format: biochemical; details: 1.0 μM
One number for each entry, in %.

For every item in the list below, what is its measured PSMA Blkg % (1.0 μM)?
1. O=C(O)CC[C@H](NC(=O)N[C@@H](CCCCNc1nc(-c2cccc(NC(=O)CCOCCOCCOCCOCCNC(=O)Cn3cc(CCCF)nn3)c2)cs1)C(=O)O)C(=O)O [P254]
2. O=C(O)CCC(NC(=O)N[C@@H](CCCCNc1nc(NCCN(CCNc2ccc([N+](=O)[O-])c(NCCCCC(NC(=O)N[C@@H](CCC(=O)O)C(=O)O)C(=O)O)n2)CCNc2ccc([N+](=O)[O-])c(NCCCCC(NC(=O)N[C@@H](CCC(=O)O)C(=O)O)C(=O)O)n2)ccc1[N+](=O)[O-])C(=O)O)C(=O)O (stereo in doubt) [P270]

[95, 71]

* * *

biological target: human PSMA (Homo sapiens (Human)); experiment: Enzymatic assay for in vitro evaluation of PSMA inhibitors (fluorescent assay of PSMA activity, NAAG substrate, OPA detection of glutamate); format: biochemical; settings: compound at 10 μM
Assignment: determine reported PSMA Blkg % (10 μM) for the given molecules.
# output: numeric value plus its unit

Below, each entry is followed by its recorded PSMA Blkg % (10 μM) result.
Give its PSMA Blkg % (10 μM) value. Item: `[N-]=[N+]=NCCCC(=O)Nc1ccc(C[C@H](NC(=O)N[C@@H](CCC(=O)O)C(=O)O)C(=O)O)cc1`
97%

Field entry: `O=C(O)CC[C@H](NC(=O)NNC(=O)CCCc1ccc(-n2cc(CCCF)nn2)cc1)C(=O)O`
3%

Field entry: O=C(O)CC[C@H](NC(=S)N(O)C(CCCCNC(=O)OCc1ccccc1)C(=O)O)C(=O)O (stereo partly shown)
96%

Field entry: `O=C(O)CC[C@H](NC(=O)C[C@H](NC(=O)Cn1cc(CCCF)nn1)C(=O)O)C(=O)O`
0%

Field entry: `CCC1(CC)C(=O)N([C@@H](CCCCNC(=O)OCc2ccc([N+](=O)[O-])cc2)C(=O)O)C(=O)N([C@@H](CCC(=O)O)C(=O)O)C1=O`
13%

Field entry: `CCC1(CC)C(=O)N([C@@H](CCCCNC(=O)c2ccc(F)nc2)C(=O)O)C(=O)N([C@@H](CCC(=O)O)C(=O)O)C1=O`
11%

Then there is this molecule:
Give its PSMA Blkg % (10 μM) value. Item: `CCC1(CC)C(=O)N([C@@H](CCCCNS(=O)(=O)c2ccc([N+](=O)[O-])cc2)C(=O)O)C(=O)N([C@@H](CCC(=O)O)C(=O)O)C1=O`
19%

* * *

target: human PSMA (Homo sapiens (Human))
readout: Ki (nM)
Answers are plain numbers, in nM.

Below, each entry is followed by its recorded Ki result.
Give its Ki value. Item: CC(F)C(=O)Nc1ccc(C(=O)NCCCCC(C(=O)O)N(C)C(=O)N[C@@H](CCC(=O)O)C(=O)O)cc1 (stereo partly drawn)
34.4

Field entry: O=C(O)CC[C@H](NC(=O)N[C@@H](CCCCNC(=O)N1CCN(C(=O)CCC(CCC(=O)N2CCN(C(=O)NCCCC[C@H](NC(=O)N[C@@H](CCC(=O)O)C(=O)O)C(=O)O)CC2)NC(=O)c2ccc(-n3cc(CCCF)nn3)cc2)CC1)C(=O)O)C(=O)O (stereo in doubt)
1.3

Further cases:
Give its Ki value. Item: `O=C(O)CC[C@H](NC(=O)N[C@@H](CSCc1ccc(F)cc1)C(=O)O)C(=O)O`
50

* * *

Assignment: determine reported PSMA Blkg % (10 μM) for the given molecules.
target: human PSMA (Homo sapiens (Human), UniProt Q04609); assay: Enzymatic assay for in vitro evaluation of PSMA inhibitors (fluorescent assay of PSMA activity, NAAG substrate, OPA detection of glutamate); assay type: biochemical; details: compound at 10 μM
Sequence (Q04609 whole entry): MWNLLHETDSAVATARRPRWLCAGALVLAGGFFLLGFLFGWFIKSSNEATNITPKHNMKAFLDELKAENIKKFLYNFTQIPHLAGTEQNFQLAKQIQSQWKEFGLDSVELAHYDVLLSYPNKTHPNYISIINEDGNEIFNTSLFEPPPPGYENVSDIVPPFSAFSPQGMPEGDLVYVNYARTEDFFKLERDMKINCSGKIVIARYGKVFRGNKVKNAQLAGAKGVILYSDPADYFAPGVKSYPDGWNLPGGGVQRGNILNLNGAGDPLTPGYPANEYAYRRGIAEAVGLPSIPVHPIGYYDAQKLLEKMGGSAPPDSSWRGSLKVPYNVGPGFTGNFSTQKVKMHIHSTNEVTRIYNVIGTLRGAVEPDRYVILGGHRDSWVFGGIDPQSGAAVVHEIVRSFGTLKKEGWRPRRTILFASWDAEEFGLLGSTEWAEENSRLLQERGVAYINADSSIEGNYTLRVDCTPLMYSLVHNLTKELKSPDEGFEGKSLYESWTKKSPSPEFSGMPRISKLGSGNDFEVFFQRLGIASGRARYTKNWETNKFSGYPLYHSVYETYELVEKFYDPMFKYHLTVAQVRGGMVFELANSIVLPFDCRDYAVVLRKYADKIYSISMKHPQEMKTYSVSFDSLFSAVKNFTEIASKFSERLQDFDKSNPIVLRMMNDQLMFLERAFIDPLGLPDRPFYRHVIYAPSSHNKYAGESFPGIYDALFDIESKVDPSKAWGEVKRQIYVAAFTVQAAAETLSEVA
# output: numeric value plus its unit

Below, each entry is followed by its recorded PSMA Blkg % (10 μM) result.
Give its PSMA Blkg % (10 μM) value. Item: Nc1ccc(/C(O)=C2\C(=O)NC(=O)N([C@@H](CCC(=O)O)C(=O)O)C2=O)cc1 [P127]
10%

Field entry: O=C(O)CC[C@H](NC(=O)C[C@H](NC(=O)OCc1ccccc1)C(=O)O)C(=O)O [P015]
0%

Field entry: O=C(O)CCN(CC(=O)O)NC(=O)NC(CSCc1ccccc1)C(=O)O (centres unmarked) [P017]
0%

For every item in the list below, what is its measured PSMA Blkg % (10 μM)?
1. O=C(O)CC[C@H](NC(=O)N(O)[C@@H](CCCCNC(=O)c1ccc(-n2cc(CCCF)nn2)cc1)C(=O)O)C(=O)O [P092]
2. CN(C(=O)N[C@@H](CCC(=O)O)C(=O)O)[C@@H](CCCCNC(=O)CCCc1ccc(-n2cc(CCCF)nn2)cc1)C(=O)O [P103]
3. O=C(O)CC[C@H](NC(=O)N(CC(=O)O)NC(=O)Cc1ccccc1)C(=O)O [P011]
4. CC(C)(C)OC(=O)NCCCCN(CC(=O)O)CC(=O)N[C@@H](CCC(=O)O)C(=O)O [P049]
5. O=C(O)CC[C@H](NC(=O)N(O)[C@@H](CCCCNC(=O)c1ccc(NC(=O)c2ccc(F)nc2)cc1)C(=O)O)C(=O)O [P164]
6. O=C(O)CC[C@@H](C(=O)O)N1C(=O)CC(=O)N([C@@H](CCCCNC(=O)CCCc2ccc(-n3cc(CCCF)nn3)cc2)C(=O)O)C1=O [P094]

1: 99%; 2: 91%; 3: 0%; 4: 0%; 5: 80%; 6: 7%

For every item in the list below, what is its measured PSMA Blkg % (10 μM)?
1. O=C(O)CC[C@H](NC(=O)CCN(O)C(=O)CCCc1ccc(-n2cc(CCCF)nn2)cc1)C(=O)O [P111]
2. COc1ccc(CCCC(=O)N[C@@H](CC(=O)N[C@@H](CCC(=O)O)C(=O)O)C(=O)O)cc1 [P122]
3. CN(C(=O)N[C@@H](CCC(=O)O)C(=O)O)[C@@H](CCCCNC(=O)Cn1cc(CCCF)nn1)C(=O)O [P032]
4. O=C(O)CC[C@H](NC(=O)CN(O)C(=O)CCCNC(=O)c1ccc(-n2cc(CCCF)nn2)cc1)C(=O)O [P141]
5. [N-]=[N+]=Nc1ccc(C(=O)NCCCC[C@@H](C(=O)O)N2C(=O)CC(=O)N([C@@H](CCC(=O)O)C(=O)O)C2=O)cc1 [P057]
6. C[C@@H](C(=O)O)N(C)C(=O)N[C@@H](CCC(=O)O)C(=O)O [P024]
7. CN(C(=O)N[C@@H](CCC(=O)O)C(=O)O)[C@@H](CCCCn1cc(CCCF)nn1)C(=O)O [P173]
8. O=C(O)CC[C@H](NC(=O)N[C@@H](CCCCNC(=O)OCc1ccccc1)C(=O)O)C(=O)O [P033]

1. 9%
2. 18%
3. 50%
4. 1%
5. 32%
6. 6%
7. 31%
8. 89%

For every item in the list below, what is its measured PSMA Blkg % (10 μM)?
1. O=C(O)CCC(NC(=O)N1CC(NC(=O)CCCCn2cc(CCCF)nn2)C[C@H]1C(=O)O)C(=O)O (some centres unmarked) [P081]
2. O=C(O)CC[C@H](NC(=O)N[C@@H](CCCCNC(=O)c1ccc(F)cc1)C(=O)O)C(=O)O [P155]
3. O=C(O)CC[C@H](NC(=O)CN(O)C(=O)CCc1ccc(-n2cc(CCCF)nn2)cc1)C(=O)O [P144]
4. CN(C(=O)N[C@@H](CCC(=O)O)C(=O)O)[C@@H](Cc1ccc(NC(=O)CCCCCn2cc(CCCF)nn2)cc1)C(=O)O [P068]
5. O=C(O)CC[C@H](NC(=O)N[C@@H](CSCc1ccc(F)cc1)C(=O)O)C(=O)O [P001]
6. O=C(O)CN(CC(=O)O)CC(=O)N[C@H](CSCc1ccccc1)C(=O)O [P028]
7. O=C(O)CCC(NS(=O)(=O)N[C@@H](CCC(=O)O)C(=O)O)C(=O)O (some centres unmarked) [P099]

["25%", "97%", "7%", "27%", "97%", "24%", "0%"]

* * *

target: human PSMA (Homo sapiens (Human)); test: Enzymatic assay for in vitro evaluation of PSMA inhibitors (fluorescent assay of PSMA activity, NAAG substrate, OPA detection of glutamate); assay type: biochemical; conditions: compound at 10 μM
Assignment: determine reported PSMA Blkg % (10 μM) for the given compounds.
Give bare numbers, in %.

Below, each entry is followed by its recorded PSMA Blkg % (10 μM) result.
Give its PSMA Blkg % (10 μM) value. Item: `CC(C)(C)OC(=O)NCCCCN(CC(=O)N[C@@H](CCC(=O)O)C(=O)O)C(=O)NO`
0

Field entry: O=C(O)CC[C@H](NC(=O)N(O)C(CCCCNC(=O)OCc1ccccc1)C(=O)O)C(=O)O (stereo partly drawn)
94

Field entry: `CCN(C(=O)N[C@@H](CCC(=O)O)C(=O)O)[C@@H](CCCCNC(=O)OCc1ccccc1)C(=O)O`
0

Field entry: `O=C(O)CC[C@H](NC(=O)CN(O)C(=O)CCCc1ccc(-n2cc(CCCF)nn2)cc1)C(=O)O`
85

For every item in the list below, what is its measured PSMA Blkg % (10 μM)?
1. [N-]=[N+]=Nc1ccc(CCCC(=O)NC(Cc2cn(C(CCC(=O)O)C(=O)O)nn2)C(=O)O)cc1 (stereo not drawn)
2. CCC1(CC)C(=O)N([C@@H](CCCCNC(=O)NCc2ccccc2)C(=O)O)C(=O)N([C@@H](CCC(=O)O)C(=O)O)C1=O
3. CC(F)C(=O)Nc1ccc(C(=O)NCCCC[C@@H](C(=O)O)N(O)C(=O)N[C@@H](CCC(=O)O)C(=O)O)cc1 (stereo partly drawn)
4. CN(C(=O)[C@H](CC(=O)O)NC(=O)COCCNC(=O)c1ccc(F)cc1)[C@@H](CCC(=O)O)C(=O)O
5. CN1C(=O)N(C(CCC(=O)O)C(=O)O)C(=O)[C@@H]1CCCCNC(=O)c1ccc(N=[N+]=[N-])cc1 (stereo partly drawn)
6. O=C(O)CC[C@H](NC(=O)N(O)C(CCCCNC(=O)c1ccc(NC(=O)c2ccc(F)cc2)cc1)C(=O)O)C(=O)O (stereo partly drawn)
7. O=C(O)CC[C@@H](C(=O)O)N1C(=O)CC(=O)N([C@@H](CCCCNS(=O)(=O)c2ccc([N+](=O)[O-])cc2)C(=O)O)C1=O

1. 3
2. 11
3. 79
4. 1
5. 25
6. 87
7. 12

For every item in the list below, what is its measured PSMA Blkg % (10 μM)?
1. O=C(O)CCC(NC(=O)C(=O)N[C@@H](CCC(=O)O)C(=O)O)C(=O)O (stereo partly drawn)
2. CN(CCCC[C@H](NC(=O)N[C@@H](CCC(=O)O)C(=O)O)C(=O)O)C(=O)OCc1ccccc1
3. [N-]=[N+]=Nc1ccc(CCCC(=O)NS(=O)(=O)N[C@@H](CCC(=O)O)C(=O)O)cc1
4. CN(C(=O)N[C@@H](CCC(=O)O)C(=O)O)[C@@H](CCCCNC(=O)c1ccc(OCCF)cc1)C(=O)O

23
100
39
96
